tested on: CCD-18Co; assay: Cell-based assay, anti-proliferative activity (Cell Counting Kit-8, 72 hours); conditions: Homo sapiens; CCD-18Co cells, Cell Counting Kit-8, 72 hours; read-out: IC50 (μM) CCD-18Co
Counter-ions that a name gives are not always drawn.
Consider the following compounds; for each one, report its log10(IC50).
Note: values are log10 of IC50 expressed in µM.

Q) Report measured log10(IC50) on CCD-18Co; entry: COc1cc(OC)c(-c2cn3ccc(N4CCN(CCCN(C)C)CC4)cc3n2)cc1Br [Example 130]
A) 0.82

Q) Report measured log10(IC50) on CCD-18Co; entry: COc1cc(OC)c(-c2cn3ccc(N4CCCN(S(=O)(=O)C5CC5)CC4)cc3n2)cc1Cl [Example 187]
A) 0.70

Q) Report measured log10(IC50) on CCD-18Co; entry: COc1cc(OC)c(-c2cn3ccc(N4CCC(NC(=O)OC(C)(C)C)C4)cc3n2)cc1Cl (stereo not drawn) [Example 23]
A) 0.45

Q) Report measured log10(IC50) on CCD-18Co; entry: COc1cc(OCCCN(C)C)c(-c2cn3ccc(N4CCN(C(=O)C(C)(C)C)CC4)cc3n2)cc1Cl [Example 156]
A) 0.86

Q) Report measured log10(IC50) on CCD-18Co; entry: COc1cc(OC)c(-c2cn3ccc(C4=CCN(CCF)CC4)cc3n2)cc1Cl [Example 113]
A) 0.88

Q) Report measured log10(IC50) on CCD-18Co; entry: COc1cc(OC)c(-c2cn3ccc(N4CCN(C(=O)OC(C)(C)C)CC4)nc3n2)cc1Cl [Example 145]
A) 0.45

Q) Report measured log10(IC50) on CCD-18Co; entry: COc1cc(OC)c(-c2cn3ccc(N4CCCCC4)cc3n2)cc1Cl [Example 25, hydrobromide]
A) 0.36

Q) Report measured log10(IC50) on CCD-18Co; entry: COc1cc(OC)c(-c2cn3ccc(N4CCCN(S(C)(=O)=O)CC4)cc3n2)cc1Cl [Example 201]
A) 0.51

Q) Report measured log10(IC50) on CCD-18Co; entry: CCCCCNC1CCN(c2ccn3cc(-c4cc(Cl)c(OC)cc4OCCCN(C)C)nc3c2)CC1 [Example 165]
A) 0.32

Q) Report measured log10(IC50) on CCD-18Co; entry: COc1cc(OC)c(-c2cn3ccc(N4CCN(CCO)CC4)nc3n2)cc1Cl [Example 45]
A) 1.32

Q) Report measured log10(IC50) on CCD-18Co; entry: COc1cc(OC)c(-c2cn3cc(NCCN)c(N4CCOCC4)c(F)c3n2)cc1Cl [Example 208]
A) 0.77

Q) Report measured log10(IC50) on CCD-18Co; entry: COc1cc(OC)c(-c2cn3ccc(N4CCC(NS(=O)(=O)C5CC5)CC4)cc3n2)cc1Cl [Example 126]
A) 0.26

Q) Report measured log10(IC50) on CCD-18Co; entry: COc1cc(OC)c(-c2cn3ccc(C4=CCN(CCO)CC4)cc3n2)cc1Cl [Example 134]
A) 0.73

Q) Report measured log10(IC50) on CCD-18Co; entry: COc1cc(OCCCN(C)C)c(-c2cn3ccc(N4CCN(C(=O)OC(C)(C)C)CC4)cc3n2)cc1Cl [Example 127]
A) -0.08

Q) Report measured log10(IC50) on CCD-18Co; entry: CCCS(=O)(=O)N1CCN(c2ccn3cc(-c4cc(Cl)c(OC)cc4OC)nc3n2)CC1 [Example 191]
A) 0.51

Q) Report measured log10(IC50) on CCD-18Co; entry: COc1cc(OC)c(-c2cn3ccc(N4CCC(N(C)C)CC4)cc3n2)cc1Cl [Example 92]
A) 0.94

Q) Report measured log10(IC50) on CCD-18Co; entry: COC(=O)Nc1ccn2cc(-c3cc(Cl)c(OC)cc3OC)nc2c1 [Example 183]
A) 0.26

Q) Report measured log10(IC50) on CCD-18Co; entry: COc1cc(OC)c(-c2cn3ccc(N(C)CCNC(=O)OC(C)(C)C)cc3n2)cc1Cl [Example 48]
A) 0.81

Q) Report measured log10(IC50) on CCD-18Co; entry: COc1cc(OC)c(-c2cn3ccc(N4CCNCC4)cc3n2)cc1Cl [Example 17]
A) 0.93

Q) Report measured log10(IC50) on CCD-18Co; entry: COc1cc(OC)c(-c2cn3ccc(N4CCOCC4)cc3n2)cc1F [Example 87, hydrobromide]
A) 0.75

Q) Report measured log10(IC50) on CCD-18Co; entry: COc1cc(OC)c(-c2cn3ccc(N4CCC(NS(=O)(=O)CC(C)C)CC4)cc3n2)cc1Cl [Example 185]
A) 0.28

Q) Report measured log10(IC50) on CCD-18Co; entry: COC(=O)N1CCN(c2ccn3cc(-c4cc(Cl)c(OC)cc4OCCCN(C)C)nc3c2)CC1 [Example 152]
A) 0.72

Q) Report measured log10(IC50) on CCD-18Co; entry: COc1cc(OC)c(-c2cn3ccc(N4CCC(NS(=O)(=O)C5CC5)C4)cc3n2)cc1Cl (stereo not drawn) [Example 63]
A) 0.58

Q) Report measured log10(IC50) on CCD-18Co; entry: COc1cc(OC)c(-c2cn3cc(C4=CCNCC4)c(N4CCOCC4)cc3n2)cc1Cl [Example 101]
A) 0.82

Q) Report measured log10(IC50) on CCD-18Co; entry: COCCN1CCN(c2ccn3cc(-c4cc(Cl)c(OC)cc4OC)nc3c2)CC1 [Example 105]
A) 0.91

Q) Report measured log10(IC50) on CCD-18Co; entry: COc1cc(OC)c(-c2cn3ccc(N4CCC(NC(=O)C(C)(C)C)CC4)cc3n2)cc1Cl [Example 123]
A) 0.53

Q) Report measured log10(IC50) on CCD-18Co; entry: COc1cc(OC)c(-c2cn3ccc(N4CCCN(S(=O)(=O)N(C)C)CC4)cc3n2)cc1Cl [Example 200]
A) 0.48

Q) Report measured log10(IC50) on CCD-18Co; entry: COC(=O)N1CCN(c2ccn3cc(-c4cc(Cl)c(OC)cc4OC)nc3c2)CC1 [Example 99]
A) 0.20

Q) Report measured log10(IC50) on CCD-18Co; entry: CCOC(=O)N1CCN(c2ccn3cc(-c4cc(Cl)c(OC)cc4OC)nc3c2)CC1 [Example 107]
A) 0.51

Q) Report measured log10(IC50) on CCD-18Co; entry: COc1cc(OC)c(-c2cn3ccc(N4CCC(NS(C)(=O)=O)CC4)nc3n2)cc1Cl [Example 192]
A) 0.72

Q) Report measured log10(IC50) on CCD-18Co; entry: COC(=O)N1CC=C(c2ccn3cc(-c4cc(Cl)c(OC)cc4OC)nc3c2)CC1 [Example 102]
A) 0.45

Q) Report measured log10(IC50) on CCD-18Co; entry: COc1cc(OC)c(-c2cn3ccc(C4=CCN(C(C)=O)CC4)cc3n2)cc1Cl [Example 120]
A) 0.83

Q) Report measured log10(IC50) on CCD-18Co; entry: COc1cc(OC)c(-c2cn3ccc(N4CCN(S(=O)(=O)C5CC5)CC4)nc3n2)cc1Cl [Example 146]
A) 0.62
